# Test system: HeLa
# ASSAY_NAME: Induction of apoptosis in human HeLa cells assessed as early apoptotic cells at IC50 concentration after 24 hrs using annexin V/propidium iodide staining by flow cytometry
# Assay type: functional
# Activity values compiled below
State the answer as a number, implicitly in %.

Examples from the recorded data:
- CCCCCCCCCCCCNc1ccc2c3c(cccc13)C(=O)N(CCCN1CCN(C)CC1)C2=O: 84.84
- CCCCCCCCCCCCN1C(=O)c2cccc3c(NCCN4CCN(C)CC4)ccc(c23)C1=O: 86.98
- CCCCCCCCNc1ccc2c3c(cccc13)C(=O)N(CCCNCCN(C)C)C2=O: 74.25
- CCCCCCCCN1C(=O)c2cccc3c(NCCNCCN(C)C)ccc(c23)C1=O: 90.07

Kindly consider the entry below.
-- ask // lookup Activity for CCCCCCCCCCCCN1C(=O)c2cccc3c(NCCNCCN(C)C)ccc(c23)C1=O
-- reply 79.21

---

# Test system: HeLa
# ASSAY_NAME: Induction of lysosomal membrane permeabilization in human HeLa cells assessed as acridine orange red fluorescence at 6 uM after 24 hrs by flow cytometry
# Format: functional
MEASURED_PARAMETER: Activity (%)
State the answer as a number, implicitly in %.

-- ask // lookup Activity for CCCCCCCCCCCCN1C(=O)c2cccc3c(NCCN4CCN(C)CC4)ccc(c23)C1=O
-- reply 92.83

-- ask // lookup Activity for CCCCCCCCN1C(=O)c2cccc3c(NCCNCCN(C)C)ccc(c23)C1=O
-- reply 85.74

-- ask // lookup Activity for CCCCCCCCNc1ccc2c3c(cccc13)C(=O)N(CCCNCCN(C)C)C2=O
-- reply 32.89

-- ask // lookup Activity for CCCCCCCCCCCCNc1ccc2c3c(cccc13)C(=O)N(CCCNCCN(C)C)C2=O
-- reply 44.64

---

# System: HL-60
# ASSAY_NAME: Cytotoxicity against human HL60 cells after 72 hrs by MTT assay
# Format: functional, cell-based
# CONDITION_LABEL: HL-60, 24 h, in the assay text read “after 24 hrs” for “after 72 hrs”
Rule for this label: 1 means IC50 is less than 7 µM; 0 means IC50 is at least 7 µM.

Answered cases to consult:
• CCCCCCCCCCCCNc1ccc2c3c(cccc13)C(=O)N(CCCN1CCN(C)CC1)C2=O = 1
• CCCCCCCCCCCCNc1ccc2c3c(cccc13)C(=O)N(CCCNCCN(C)C)C2=O = 1
• CCCCCCCCCCCCN1C(=O)c2cccc3c(NCCCCCCCC)ccc(c23)C1=O = 0
• CCCCCCCCN1C(=O)c2cccc3c(NCCNCCN(C)C)ccc(c23)C1=O = 1
• CCCCCCCCN1C(=O)c2cccc3c(NCCN4CCN(C)CC4)ccc(c23)C1=O = 0
• CCCCCCCCCCCCN1C(=O)c2cccc3c(NCCN(C)C)ccc(c23)C1=O = 1

-- ask Please check: IC50 for CCCCCCCCNc1ccc2c3c(cccc13)C(=O)N(CCCN1CCN(C)CC1)C2=O , strictly under 7 µM or not?
-- reply 1

-- ask Please check: IC50 for CCCCCCCCNc1ccc2c3c(cccc13)C(=O)N(CCCNCCN(C)C)C2=O , strictly under 7 µM or not?
-- reply 1

-- ask Please check: IC50 for CCCCCCCCCCCCN1C(=O)c2cccc3c(NCCNCCN(C)C)ccc(c23)C1=O , strictly under 7 µM or not?
-- reply 1

-- ask Please check: IC50 for CNc1ccc2c3c(cccc13)C(=O)N(CCCN(C)C)C2=O , strictly under 7 µM or not?
-- reply 0

-- ask Please check: IC50 for CCCCCCCCNc1ccc2c3c(cccc13)C(=O)N(CCCN(C)C)C2=O , strictly under 7 µM or not?
-- reply 1
